// data source = ChEMBL document CHEMBL1127408

Measured selectivity ratio of individual entries
Experiment: Tested for in vitro therapeutic index as the ratio of IC50 to EC50 in acutely infected H9 Lymphocytes
Format: organism-based, Human immunodeficiency virus 1
Details: human immunodeficiency virus 1, H9 lymphocytes acutely infected with HIV-1; read-out: TI
Kindly provide the number alone.

Data request: Recorded selectivity ratio of CC(C)CC(=O)OC1c2c(ccc3ccc(=O)oc23)OC(C)(C)C1OC(=O)CC(C)C (stereo in doubt; 9) , please.
Data returned: 2

Data request: # input compound: CC1(C)Oc2ccc3ccc(=O)oc3c2C(OC(=O)C23CCC(C)(C(=O)O2)C3(C)C)C1OC(=O)C12CCC(C)(C(=O)O1)C2(C)C (stereo in doubt; 38) ; wanted: its selectivity ratio
Data returned: 3

More entries:
Data request: Please report the recorded selectivity ratio for CC(C)[C@H]1CC[C@H](C)C[C@@H]1OC(=O)OC1c2c(ccc3ccc(=O)oc23)OC(C)(C)C1OC(=O)O[C@@H]1C[C@H](C)CC[C@H]1C(C)C (stereo partly drawn) .
Data returned: 2.9

Data request: Quick one: selectivity ratio for CC(C)CC(=O)OC1C(OC(=O)c2cccc(Cl)c2)c2c(ccc3ccc(=O)oc23)OC1(C)C (stereo not drawn) ?
Data returned: 1.4

Data request: Tell me the measured selectivity ratio of CC(C)=CC(=O)OC1c2c(ccc3ccc(=O)oc23)OC(C)(C)C1OC(=O)C=C(C)C (stereo not drawn) , please.
Data returned: 3.5

Data request: Fill blank: measured selectivity ratio of the compound CC1(C)Oc2ccc3ccc(=O)oc3c2C(O)C1OCc1ccccc1 (stereo not drawn) is ____.
Data returned: 2.7

Data request: Which selectivity ratio reading was recorded for the compound CC(=O)OC1C(N=[N+]=[N-])c2c(ccc3ccc(=O)oc23)OC1(C)C (stereo not drawn) ?
Data returned: 1
